Data origin: paper PMC2891058

Study target: S. typhimurium QAPRTase (quinolinate phosphoribosyltransferase) (Salmonella enterica, UniProt P30012, K154A)
Assay text: biochemical
pKd: −log10 of the molar value.
Measurement type: pKd

Problem: Output pKd of "O=P(O)(O)OC[C@H]1O[C@H](OP(=O)(O)OP(=O)(O)O)[C@H](O)[C@@H]1O"
Result: < 3.00

---

Study target: S. typhimurium QAPRTase (quinolinate phosphoribosyltransferase) (Salmonella enterica, UniProt P30012, K285A)
Assay text: biochemical
pKd: −log10 of the molar value.
Measurement type: pKd

Problem: Indicate the recorded pKd value for this compound: "O=P(O)(O)OC[C@H]1O[C@H](OP(=O)(O)OP(=O)(O)O)[C@H](O)[C@@H]1O"
Result: ~3.00
